measured_on: NKCC1 (Homo sapiens)
Construct: endogenous in cells; host or cells: native HEK293 cells
assay: NKCC1-mediated K+ influx (83Rb tracer uptake) in native HEK293 cells, hypertonic saline, 100 μM ouabain
Assay type: cell-based
experimental_conditions: HEK293; 2 μM; no drug = 1000, 20 μM bumetanide = 0; read-out: NKCC1 mediated flux inhibition at 2 μM (%)
property_name: inhibition at 2 µM

Please give inhibition at 2 µM for each item listed below.
1. CCCCNc1cc(C(=O)O)cc(S(=N)(=O)NCc2ccccc2)c1Oc1ccccc1 (centres unmarked)
2. CCCCNc1cc(C(=O)NOC)cc(S(=N)(=O)Nc2ccccc2)c1Oc1ccccc1 (centres unmarked)
3. CCCCNc1cc(C(=O)O)cc(S(=N)(=O)NCc2ccn(C)n2)c1Oc1ccccc1 (centres unmarked)
4. CCCCNc1cc(C(=O)NC)cc(S(=N)(=O)NCC2CCOCC2)c1Oc1ccccc1 (centres unmarked)
5. CCCCNc1cc(C(=O)O)cc(S(=N)(=O)NC)c1Oc1ccccc1 (centres unmarked)

["30 to 50%", "30 to 50%", "50 to 75%", "30 to 50%", "50 to 75%"]

###

measured_on: NKCC1 (Homo sapiens)
Construct: endogenous in cells; host or cells: native HEK293 cells
Sequence (P55011 1-1212): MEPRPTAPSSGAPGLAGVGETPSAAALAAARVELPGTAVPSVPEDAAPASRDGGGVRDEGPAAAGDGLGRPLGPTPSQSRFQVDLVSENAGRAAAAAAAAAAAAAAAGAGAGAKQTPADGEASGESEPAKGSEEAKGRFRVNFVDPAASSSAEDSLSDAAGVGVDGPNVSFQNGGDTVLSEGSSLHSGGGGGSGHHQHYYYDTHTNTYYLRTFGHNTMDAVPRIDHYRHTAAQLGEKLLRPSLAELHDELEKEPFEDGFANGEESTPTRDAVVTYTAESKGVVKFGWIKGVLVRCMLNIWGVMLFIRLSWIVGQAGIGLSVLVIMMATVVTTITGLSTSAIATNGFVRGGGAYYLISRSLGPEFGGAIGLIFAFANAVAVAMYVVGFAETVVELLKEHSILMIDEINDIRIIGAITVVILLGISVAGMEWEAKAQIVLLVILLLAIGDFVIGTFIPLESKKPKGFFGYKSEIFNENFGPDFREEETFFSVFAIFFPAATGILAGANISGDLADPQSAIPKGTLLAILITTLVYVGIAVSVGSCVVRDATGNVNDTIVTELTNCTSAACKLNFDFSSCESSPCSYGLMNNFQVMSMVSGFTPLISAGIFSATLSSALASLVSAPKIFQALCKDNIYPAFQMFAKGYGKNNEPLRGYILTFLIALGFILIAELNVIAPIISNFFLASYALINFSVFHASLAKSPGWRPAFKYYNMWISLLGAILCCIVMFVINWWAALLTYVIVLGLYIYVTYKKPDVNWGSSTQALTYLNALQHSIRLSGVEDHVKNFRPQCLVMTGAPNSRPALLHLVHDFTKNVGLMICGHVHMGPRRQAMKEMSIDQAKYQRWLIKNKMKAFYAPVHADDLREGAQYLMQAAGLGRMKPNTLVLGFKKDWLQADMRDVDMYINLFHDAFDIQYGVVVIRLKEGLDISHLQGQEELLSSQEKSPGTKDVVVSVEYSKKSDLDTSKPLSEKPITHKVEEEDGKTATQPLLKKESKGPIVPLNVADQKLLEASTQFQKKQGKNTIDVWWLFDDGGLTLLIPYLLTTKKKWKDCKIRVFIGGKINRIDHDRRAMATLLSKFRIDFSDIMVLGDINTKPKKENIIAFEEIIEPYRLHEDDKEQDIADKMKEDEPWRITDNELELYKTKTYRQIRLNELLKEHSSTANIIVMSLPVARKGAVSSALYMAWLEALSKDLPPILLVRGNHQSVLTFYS
assay: NKCC1-mediated K+ influx (83Rb tracer uptake) in native HEK293 cells, hypertonic saline, 100 μM ouabain
Format: cell-based
experimental_conditions: HEK293; 20 μM; no drug = 1000, 20 μM bumetanide = 0; read-out: NKCC1 mediated flux inhibition at 20 μM (%)
For each of the compounds below, state its inhibition at 20 µM.

- compound: "CCCCNc1cc(C(=O)O)cc(S(=N)(=O)Nc2ccccc2)c1Oc1ccccc1 (centres unmarked) [Compound 57]"
  inhibition at 20 µM: "≥ 75%"
- compound: "CCCCNc1cc(C(=O)OC)cc(S(=O)(=O)Nc2ccccc2)c1Oc1ccccc1 [Compound 124]"
  inhibition at 20 µM: "30 to 50%"
- compound: "CCCCNc1cc(C(=O)O)cc(S(=N)(=O)Nc2cccnc2)c1Oc1ccccc1 (centres unmarked) [Compound 64]"
  inhibition at 20 µM: "≥ 75%"

For the 5 compounds below, give their inhibition at 20 µM values.
1. CCCCNc1cc(C(=O)OC)cc(S(=N)(=O)NCc2cccc(Cl)c2)c1Oc1ccccc1 (centres unmarked) [Compound 23]
2. CCCCNc1cc(C(=O)O)cc(S(=N)(=O)NCCc2cccnc2)c1Oc1ccccc1 (centres unmarked) [Compound 84]
3. CCCCNc1cc(C(=O)OC)cc(S(=N)(=O)N2CCC(c3ccccc3)CC2)c1Oc1ccccc1 (centres unmarked) [Compound 18]
4. CCCCNc1cc(C(=O)OC)cc(S(=N)(=O)Nc2ccn(C)n2)c1Oc1ccccc1 (centres unmarked) [Compound 21]
5. CCCCNc1cc(C(=O)O)cc(S(=N)(=O)NCCOC)c1Oc1ccccc1 (centres unmarked) [Compound 59]

10 to 30%
≥ 75%
10 to 30%
30 to 50%
50 to 75%
